# experimental target: Ephrin type-A receptor 2 (Homo sapiens, UniProt P29317)
# Sequence (P29317 whole entry): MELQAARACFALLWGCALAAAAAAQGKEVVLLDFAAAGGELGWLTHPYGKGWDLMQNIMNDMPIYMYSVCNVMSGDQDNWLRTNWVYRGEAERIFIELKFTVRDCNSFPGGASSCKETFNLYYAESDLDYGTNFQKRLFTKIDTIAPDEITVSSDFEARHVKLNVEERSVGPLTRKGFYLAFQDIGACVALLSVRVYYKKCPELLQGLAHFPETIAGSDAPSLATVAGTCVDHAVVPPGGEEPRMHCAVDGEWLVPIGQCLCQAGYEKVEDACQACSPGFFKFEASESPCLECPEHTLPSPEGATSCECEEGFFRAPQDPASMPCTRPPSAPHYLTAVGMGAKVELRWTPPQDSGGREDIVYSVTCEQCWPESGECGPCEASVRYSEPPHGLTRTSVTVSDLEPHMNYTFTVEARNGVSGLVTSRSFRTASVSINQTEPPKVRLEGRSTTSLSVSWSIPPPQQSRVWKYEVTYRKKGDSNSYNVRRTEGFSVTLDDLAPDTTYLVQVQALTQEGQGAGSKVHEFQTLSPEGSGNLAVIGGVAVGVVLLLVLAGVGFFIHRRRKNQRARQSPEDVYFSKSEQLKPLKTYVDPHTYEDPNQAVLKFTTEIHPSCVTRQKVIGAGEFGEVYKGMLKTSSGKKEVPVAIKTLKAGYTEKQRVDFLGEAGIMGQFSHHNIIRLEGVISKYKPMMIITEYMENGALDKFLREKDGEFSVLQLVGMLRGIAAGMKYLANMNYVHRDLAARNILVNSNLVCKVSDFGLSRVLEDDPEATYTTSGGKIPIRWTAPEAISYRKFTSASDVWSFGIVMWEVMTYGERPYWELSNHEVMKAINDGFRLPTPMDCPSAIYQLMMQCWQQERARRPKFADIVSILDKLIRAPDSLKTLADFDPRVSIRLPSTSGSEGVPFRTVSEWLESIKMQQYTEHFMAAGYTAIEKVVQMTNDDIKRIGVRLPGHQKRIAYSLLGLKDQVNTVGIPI
endpoint name: IC50 (nM)

1) CNC(=O)c1ncc(C#Cc2cc(C(=O)Nc3ccc(CN4CCN(CCO)CC4)c(C(F)(F)F)c3)ccc2C)n1C	0.6

----------
Examples of molecules with documented concentration at 6 h follow.
# experiment: Plasma concentration in mouse after 6 hrs at 30 mg/kg, po
# Type: ADME, organism-based
# Set-up: dose 30 mg/kg, route oral
endpoint name: concentration at 6 h (ng/mL)

1) Cc1ccc(C(=O)Nc2ccc(CN3CCN(C)CC3)c(C(F)(F)F)c2)cc1C#Cc1cncnc1	771
2) CNC(=O)c1ncc(C#Cc2cc(C(=O)Nc3ccc(CN4CCN(CCO)CC4)c(C(F)(F)F)c3)ccc2C)n1C	1150
3) Cc1ccc(C(=O)Nc2ccc(CN3CCN(C)CC3)c(C(F)(F)F)c2)cc1C#Cc1cnc(C(N)=O)n1C	358
4) Cc1ccc(C(=O)Nc2ccc(CN3CCN(CCO)CC3)c(C(F)(F)F)c2)cc1C#Cc1cnc(C(N)=O)n1C	333

----------
# experiment: cells
# setup conditions: Mus musculus, BaF3
# Description: Antiproliferative activity against mouse BA/F3 cells expressing wild type BCR-ABL
The entries below are paired with their reported IC50.
endpoint name: IC50 (nM)

1) CC(=O)Nc1ccc(C#Cc2cc(C(=O)Nc3ccc(CN4CCN(C)CC4)c(C(F)(F)F)c3)ccc2C)cn1	2.2
2) Cc1ccc(C(=O)Nc2ccc(CN3CCN(C)CC3)c(C(F)(F)F)c2)cc1C#Cc1cnc(C)n1C	8.5
3) Cc1ccc(C(=O)Nc2ccc(CN3CCN(C)CC3)c(C(F)(F)F)c2)cc1C#Cc1cccnc1	4.1
4) CC(=O)Nc1ncc(C#Cc2cc(C(=O)Nc3ccc(CN4CCN(C)CC4)c(C(F)(F)F)c3)ccc2C)s1	0.67
5) Cc1ccc(C(=O)Nc2ccc(CN3CCN(C)CC3)c(C(F)(F)F)c2)cc1C#Cc1cnc(NC2CC2)nc1	195
6) CCC(=O)Nc1ccc(C#Cc2cc(C(=O)Nc3ccc(CN4CCN(C)CC4)c(C(F)(F)F)c3)ccc2C)cn1	2.5
7) Cc1ccc(C(=O)Nc2ccc(CN3CCN(C)CC3)c(C(F)(F)F)c2)cc1C#Cc1cncn1C	43
8) Cc1ccc(C(=O)Nc2ccc(CN3CCN(CC(=O)O)CC3)c(C(F)(F)F)c2)cc1C#Cc1cnc(C(N)=O)n1C	7.6
9) CNC(=O)c1ncc(C#Cc2cc(C(=O)Nc3ccc(CN4CCN(CCO)CC4)c(C(F)(F)F)c3)ccc2C)n1C	1.3
10) Cc1ccc(C(=O)Nc2ccc(CN3CCN(CCO)CC3)c(C(F)(F)F)c2)cc1C#Cc1cnc(C(N)=O)n1C	0.61

----------
# experimental target: Tyrosine-protein kinase ABL1 (Homo sapiens, UniProt P00519, T315I)
pIC50: −log10 of the molar value.
endpoint name: pIC50

1. Cc1ccc(C(=O)Nc2ccc(CN3CCN(C)CC3)c(C(F)(F)F)c2)cc1C#Cc1cccnc1	6.91
2. Cc1ccc(C(=O)Nc2ccc(CN3CCN(C)CC3)c(C(F)(F)F)c2)cc1C#Cc1ccc(C(N)=O)nc1	6.49
3. COCCN1CCN(Cc2ccc(NC(=O)c3ccc(C)c(C#Cc4cnc(C(N)=O)n4C)c3)cc2C(F)(F)F)CC1	6.85
4. Cc1ccc(C(=O)Nc2ccc(CN3CCN(CC(=O)O)CC3)c(C(F)(F)F)c2)cc1C#Cc1cnc(C(N)=O)n1C	6.97
5. Cc1ccc(C(=O)Nc2ccc(CN3CCN(C)CC3)c(C(F)(F)F)c2)cc1C#Cc1cnc(N)s1	6.86
6. Cc1ccc(C(=O)Nc2ccc(CN3CCN(C)CC3)c(C(F)(F)F)c2)cc1C#Cc1cncn1C	6.26
7. CC(=O)Nc1ccc(C#Cc2cc(C(=O)Nc3ccc(CN4CCN(C)CC4)c(C(F)(F)F)c3)ccc2C)cn1	6.92
8. Cc1ccc(C(=O)Nc2ccc(CN3CCN(C)CC3)c(C(F)(F)F)c2)cc1C#Cc1cnc(C)n1C	6.44
